The measured values listed here are drawn from patent US4497822A.

System: Aedes aegypti larvae
Assay: Insecticidal activity, larvae in treated water (Test 1 (b)), toxicity vs parathion
Assay type: in vivo, mosquito (Aedes aegypti)
Conditions: early fourth instar larvae; final mortality when all larvae emerged as adults or died; 50% mortality basis; standard parathion = 100
recorded-metric: Toxicity Index A.a.
Answers are plain numbers.

>>> value_observed("O=C(NC(=O)N(Sc1ccc([N+](=O)[O-])cc1[N+](=O)[O-])c1ccc(OC(F)(F)F)cc1)c1ccccc1Cl")
82

# batch size: 6; output Toxicity Index A.a. per entry
1. O=C(NC(=O)N(Sc1ccccc1[N+](=O)[O-])c1ccc(C(F)(F)F)cc1)c1c(F)cccc1F
2. O=C(NC(=O)N(Sc1ccccc1[N+](=O)[O-])c1ccc(Oc2ccc(C(F)(F)F)cc2Cl)cc1)c1ccccc1Cl
3. CC(C)(C)c1ccc(SN(C(=O)NC(=O)c2c(F)cccc2F)c2ccc(C(F)(F)F)cc2)cc1
4. O=C(NC(=O)N(Sc1ccc([N+](=O)[O-])cc1[N+](=O)[O-])c1ccc(C(F)(F)F)cc1)c1c(F)cccc1F
5. O=C(NC(=O)N(SC(Cl)(Cl)Cl)c1ccc(OC(F)(F)F)cc1)c1ccccc1Cl
6. Cc1ccccc1SN(C(=O)NC(=O)c1ccccc1Cl)c1ccc(OC(F)(F)F)cc1

Completion:
180
82
82
51
28
77

###

Assay: Solubility in xylene
Assay type: physicochemical
Conditions: organic solvent or mixture, o-xylene, 20° C., dark, liquid chromatography
recorded-metric: solubility at 48 h (µg/mL)
Give bare numbers, in µg/mL.

>>> value_observed("O=C(NC(=O)N(Sc1ccccc1[N+](=O)[O-])c1ccc(OC(F)(F)F)cc1)c1ccccc1Cl")
3700
>>> value_observed("O=C(NC(=O)N(Sc1ccccc1[N+](=O)[O-])c1ccc(Oc2ccc(C(F)(F)F)cc2Cl)cc1)c1c(F)cccc1F")
18800
>>> value_observed("O=C(NC(=O)c1c(F)cccc1F)Nc1ccc(Oc2ccc(C(F)(F)F)cc2Cl)cc1 [reference compound]")
5700

Please examine the following record next.
Prompt: # input compound: O=C(NC(=O)c1ccccc1Cl)Nc1ccc(OC(F)(F)F)cc1 [reference compound] ; wanted: its solubility at 48 h
Completion: 2300

###

Test system: eggs of Spodoptera littoralis
Assay: Ovicidal activity, sprayed eggs (Test 1 (c)), toxicity vs parathion
Type: in vivo, Egyptian cotton leafworm (Spodoptera littoralis)
Conditions: eggs less than 24 hours old; approximately five days; 50% mortality basis; standard parathion = 100
Give Toxicity Index S.l.ov. for every item shown.

>>> value_observed("O=C(NC(=O)N(Sc1ccccc1[N+](=O)[O-])c1cc(Cl)c(Oc2ccc([N+](=O)[O-])cc2)c(Cl)c1)c1c(F)cccc1F [Example 38]")
0
>>> value_observed("O=C(NC(=O)N(Sc1ccc(Cl)cc1)c1ccc(Oc2ccc(C(F)(F)F)cc2Cl)cc1)c1ccccc1Cl [Example 30]")
0

# batch size: 7; output Toxicity Index S.l.ov. per entry
1. O=C(NC(=O)N(Sc1ccccc1[N+](=O)[O-])c1ccc(OC(F)(F)F)cc1)c1ccccc1Cl [Example 1]
2. Cc1ccc(SN(C(=O)NC(=O)c2c(F)cccc2F)c2ccc(C(F)(F)F)cc2)cc1 [Example 18]
3. O=C(NC(=O)N(Sc1ccc([N+](=O)[O-])cc1)c1ccc(Cl)cc1)c1c(F)cccc1F [Example 28]
4. O=C(NC(=O)N(Sc1ccccc1)c1ccc(C(F)(F)F)cc1)c1c(F)cccc1F [Example 15]
5. O=C(NC(=O)N(Sc1ccccc1[N+](=O)[O-])c1ccc(Oc2ccc(C(F)(F)F)cc2Cl)cc1)c1ccccc1Cl [Example 35]
6. O=C(NC(=O)N(Sc1ccccc1[N+](=O)[O-])c1ccc(Cl)cc1)c1c(F)cccc1F [Example 5]
7. O=C(NC(=O)N(Sc1ccc(Cl)cc1)c1ccc(C(F)(F)F)cc1)c1c(F)cccc1F [Example 27]

Completion:
[210, 2300, 720, 1800, 0, "0-4", 2200]

# batch size: 7; output Toxicity Index S.l.ov. per entry
1. O=C(NC(=O)N(Sc1ccc([N+](=O)[O-])cc1)c1ccc(OC(F)(F)F)cc1)c1ccccc1Cl [Example 24]
2. Cc1ccccc1SN(C(=O)NC(=O)c1c(F)cccc1F)c1ccc(Cl)cc1 [Example 9]
3. O=C(NC(=O)N(Sc1ccccc1)c1ccc(Cl)cc1)c1c(F)cccc1F [Example 8]
4. CC(C)c1ccccc1SN(C(=O)NC(=O)c1ccccc1Cl)c1ccc(OC(F)(F)F)cc1 [Example 32]
5. O=C(NC(=O)N(Sc1ccc(Cl)cc1)c1ccc(OC(F)(F)F)cc1)c1ccccc1Cl [Example 33]
6. Cc1cccc(SN(C(=O)NC(=O)c2c(F)cccc2F)c2ccc(C(F)(F)F)cc2)c1 [Example 17]
7. O=C(NC(=O)N(Sc1ccccc1[N+](=O)[O-])c1ccc(C(F)(F)F)cc1)c1c(F)cccc1F [Example 20]

Completion:
[11, 1400, 480, 2000, 1300, 2800, 1800]
